OBSERVED_PROPERTY: flash point (°C)
Express your answer in °C, writing the number without its unit.

Examples with answers:
- COMPOUND: "C=C(C)C [2-methylprop-1-ene]"
  flash point [°C]: -76.00
- COMPOUND: "NC(=O)CCl [2-chloroacetamide]"
  flash point [°C]: 170.00
- COMPOUND: "CCCCC(CC)COC(=O)COc1ccc(Cl)cc1Cl (centres undefined) [2-ethylhexyl 2-(2,4-dichlorophenoxy)acetate]"
  flash point [°C]: 171.00
- COMPOUND: "CCCCCCCCCCCCCCCCCC(=O)O.O.[Cl][Cr][Cl].[Cl][Cr][Cl] [dichlorochromium;octadecanoic acid;hydrate]"
  flash point [°C]: 2.00
- COMPOUND: "CCCOCC(C)O (centres undefined) [1-propoxypropan-2-ol]"
  flash point [°C]: 48.00
- COMPOUND: "Clc1ccc([Si](Cl)(Cl)Cl)cc1Cl [trichloro-(3,4-dichlorophenyl)silane]"
  flash point [°C]: 141.00

Entry O=C1C=CCO1 [InChI=1S/C4H4O2/c5-4-2-1-3-6-4/h1-2H,3H2] needs its flash point filled in; supply it.
101.00

Fill in reported flash point for this entry: CCCCCCOC(=O)c1ccccc1C(=O)OCCCCCC [dihexyl benzene-1,2-dicarboxylate]
177.00

For the compound ClCCOCOCCCl [1-chloro-2-(2-chloroethoxymethoxy)ethane] , give its measured flash point value.
110.00

---

Where a name gives a salt, the structure may show the parent alone.
Each entry below carries its reported flash point.
Provide only the numeric value, understood in °C.

# example entries with known answers
- COMPOUND: "C=C1CCC=C(C)CC[C@@H]2[C@@H]1CC2(C)C"
  UNIT_SYMBOL: "°C"
  VALUE_REPORTED: 101.00
- COMPOUND: "CCCCCOC=O [pentyl formate]"
  UNIT_SYMBOL: "°C"
  VALUE_REPORTED: 26.00
- COMPOUND: "Cl[Si](Cl)(c1ccccc1)c1ccccc1"
  UNIT_SYMBOL: "°C"
  VALUE_REPORTED: 142.00
- COMPOUND: "C=CN1CCCC1=O"
  UNIT_SYMBOL: "°C"
  VALUE_REPORTED: 93.00
- COMPOUND: "Nc1cc(Cl)ccc1O"
  UNIT_SYMBOL: "°C"
  VALUE_REPORTED: 170.00
- COMPOUND: "CC(C)=CC(C)(C)C"
  UNIT_SYMBOL: "°C"
  VALUE_REPORTED: 2.00
- COMPOUND: "Nc1ccccc1[N+](=O)[O-]"
  UNIT_SYMBOL: "°C"
  VALUE_REPORTED: 168.00
- COMPOUND: "CC(=O)NCCO [N-(2-hydroxyethyl)acetamide]"
  UNIT_SYMBOL: "°C"
  VALUE_REPORTED: 177.00

Now look at this entry.
Give the reported value of flash point for this record: `O=CC=O`
220.00

---

OBSERVED_PROPERTY: flash point (°C)
The reply should contain only the number, in °C.

Below, 6 compounds whose answers are already recorded.
- COMPOUND: "CC1=CC2C(CC1)C2(C)C (configuration not stated)"
  UNIT_SYMBOL: "°C"
  flash point: 38
- COMPOUND: "CCC1CCCC1"
  UNIT_SYMBOL: "°C"
  flash point: 15
- COMPOUND: "N#CCCO [3-hydroxypropanenitrile]"
  UNIT_SYMBOL: "°C"
  flash point: 129
- COMPOUND: "CCCCOCCOC(C)=O [2-butoxyethyl acetate]"
  UNIT_SYMBOL: "°C"
  flash point: 71
- COMPOUND: "CCCCSCCCC [dibutyl sulfide]"
  UNIT_SYMBOL: "°C"
  flash point: 60
- COMPOUND: "CCC(=O)OC(C)(C)C [t-butyl propionate]"
  UNIT_SYMBOL: "°C"
  flash point: 20

From here, focus on the item given below.
Answer with reported flash point of CCCCC(CC)CO (configuration not stated)
77
